- PROCEDURE_SUMMARY: inhibitors of intracellular Trypanosoma cruzi, primary screen, cell-based, plate reader, single point, set 2 (AID 651903);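 further: parasites and compound incubated about four days before reading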
- PROTOCOL_CONDITIONS: intracellular Trypanosoma cruzi in host cells, at 5.01 µM
Hit rate of the full screen: of about 22,000 compounds, about 1,100 (5%) were called active. No stated cut-off is given here; in the data, active means activity score above about 55%; inconclusive means no clear call, values can overlap the other calls; inactive means below that. What follows is part of a selection rich in actives, with near analogues and random picks from the rest.
Labels: y = active, n = inactive

SMILES_STRING	DISCRETE_LABEL
COc1ccc(CN(C)C[C@@H]2Oc3ccc(NC(=O)Nc4ccc5c(c4)OCO5)cc3CC(=O)N([C@H](C)CO)C[C@H]2C)cc1	n
CC(C)NC(=O)Nc1ccc2c(c1)CC(=O)N([C@H](C)CO)C[C@@H](C)[C@@H](CN(C)Cc1ccc(C(=O)Nc3ccccc3N)cc1)O2	n
C[C@@H]1CN([C@H](C)CO)C(=O)c2cccc(NC(=O)Nc3cccc4ccccc34)c2O[C@@H]1CN(C)C(=O)Nc1cccc2ccccc12	n
Cc1ccc(S(=O)(=O)Nc2ccc3c(c2)C(=O)N([C@@H](C)CO)C[C@@H](C)[C@@H](CN(C)Cc2ccc(C(=O)Nc4ccccc4N)cc2)O3)cc1	n
C[C@H](CO)N1C[C@H](C)[C@H](CN(C)S(=O)(=O)c2ccc(F)cc2)Oc2ncc(-c3ccc(F)cc3)cc2C1=O	n
O=C(N/N=C/c1ccc(O)cc1Br)c1ccccc1O	n
COc1ccc(S(=O)(=O)Nc2ccc3c(c2)CC(=O)N([C@@H](C)CO)C[C@@H](C)[C@@H](CN(C)Cc2ccc(C(=O)Nc4ccccc4N)cc2)O3)cc1	n
C[C@H]1CN([C@@H](C)CO)C(=O)Cc2cc(NS(=O)(=O)c3ccccc3)ccc2O[C@H]1CN(C)Cc1ccc(C(=O)Nc2ccccc2N)cc1	y
C[C@@H]1CN([C@@H](C)CO)C(=O)c2cc(NS(=O)(=O)c3ccccc3)ccc2O[C@@H]1CN(C)Cc1ccc(C(=O)Nc2ccccc2N)cc1	n
COc1ccc(NC(=O)Nc2ccc3c(c2)CC(=O)N([C@H](C)CO)C[C@H](C)[C@H](CN(C)S(=O)(=O)c2ccccc2)O3)cc1	n
COc1ccc(-c2cnc3c(c2)C(=O)N([C@H](C)CO)C[C@H](C)[C@H](CN(C)S(=O)(=O)c2ccccc2)O3)cc1	n
C[C@H](CO)N1C[C@H](C)[C@H](CN(C)S(C)(=O)=O)Oc2c(NC(=O)Nc3cccc4ccccc34)cccc2C1=O	n
C[C@@H]1CN([C@H](C)CO)C(=O)c2cc(NS(=O)(=O)c3cn(C)cn3)ccc2O[C@@H]1CN(C)Cc1ccc(C(=O)Nc2ccccc2N)cc1	n
Cc1ccc(S(=O)(=O)Nc2ccc3c(c2)CC(=O)N([C@@H](C)CO)C[C@H](C)[C@H](CN(C)Cc2ccc(C(=O)Nc4ccccc4N)cc2)O3)cc1	y

====

- PROCEDURE_SUMMARY: inhibitors of intracellular Trypanosoma cruzi, primary screen, cell-based, plate reader, single point, set 2 (AID 651903);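 further: parasites and compound incubated about four days before reading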
- PROTOCOL_CONDITIONS: intracellular Trypanosoma cruzi in host cells, at 5.01 µM
The whole screen tested about 22,000 compounds, of which about 1,100 (5%) were called active. Cut-off read from the data, not from the text of the source: active = activity score above about 55%; inconclusive = no clear call, values can overlap the other calls; inactive = below that. What follows is part of a selection rich in actives, with near analogues and random picks from the rest.
Labels: active, inactive

SMILES_STRING	DISCRETE_LABEL
Cc1noc(C)c1NC(=O)Nc1ccc2c(c1)CC(=O)N([C@@H](C)CO)C[C@@H](C)[C@@H](CN(C)Cc1ccc(Cl)c(Cl)c1)O2	inactive
C[C@@H]1CN([C@H](C)CO)C(=O)c2cccc(NC(=O)c3nc4ccccc4s3)c2O[C@H]1CN(C)Cc1ccccc1	inactive
Cc1ccc(S(=O)(=O)N(C)C[C@@H]2Oc3ccc(NC(=O)Cn4cnnn4)cc3CC(=O)N([C@H](C)CO)C[C@H]2C)cc1	inactive
COc1ccc(CN(C)C[C@H]2Oc3c(NC(=O)NC4CCCCC4)cccc3C(=O)N([C@@H](C)CO)C[C@@H]2C)cc1	inactive
COc1ccc(CN(C)C[C@H]2Oc3ccc(NC(=O)Cc4ccccc4)cc3CC(=O)N([C@@H](C)CO)C[C@@H]2C)cc1	active
COc1ccc(S(=O)(=O)N(C)C[C@H]2OCCCC[C@@H](C)Oc3ccc(NC(=O)c4ccncc4)cc3C(=O)N([C@H](C)CO)C[C@@H]2C)cc1	inactive
C[C@H]1CN([C@@H](C)CO)C(=O)Cc2cc(NC(=O)NC3CCCCC3)ccc2O[C@@H]1CN(C)Cc1ccc(Oc2ccccc2)cc1	active
C[C@@H]1CN([C@H](C)CO)C(=O)Cc2cc(NC(=O)Cc3ccccc3)ccc2O[C@@H]1CN(C)Cc1ccccc1	inactive
C[C@@H]1CN([C@H](C)CO)C(=O)c2cc(NC(=O)Nc3ccccc3)ccc2O[C@H]1CN(C)Cc1ccc(Cl)c(Cl)c1	inactive
Cc1noc(C)c1NC(=O)Nc1ccc2c(c1)C(=O)N([C@@H](C)CO)C[C@H](C)[C@H](CN(C)CC1CCCCC1)O2	inactive
C[C@@H]1CN([C@H](C)CO)C(=O)c2cccc(NS(=O)(=O)c3ccc(F)cc3)c2O[C@@H]1CN(C)C(=O)Nc1ccc(C(F)(F)F)cc1	active
C[C@@H]1CN([C@H](C)CO)C(=O)c2cc(NC(=O)Nc3ccc(C(F)(F)F)cc3)ccc2O[C@H]1CN(C)C(=O)Nc1ccccc1	inactive
C[C@H]1CN([C@@H](C)CO)C(=O)Cc2cc(NC(=O)Cc3ccccc3)ccc2O[C@@H]1CN(C)Cc1ccc(Cl)c(Cl)c1	inactive
C[C@H](CO)N1C[C@H](C)[C@@H](CN(C)Cc2ccc(C(F)(F)F)cc2)Oc2c(NC(=O)NC3CCCCC3)cccc2C1=O	active
C[C@@H]1CN([C@@H](C)CO)C(=O)c2cc(NC(=O)Nc3ccccc3)ccc2O[C@H]1CN(C)C(=O)Nc1ccc(F)cc1	inactive
C[C@H]1CN([C@@H](C)CO)C(=O)c2cccc(NC(=O)Nc3ccc(C(F)(F)F)cc3)c2O[C@H]1CN(C)S(=O)(=O)c1ccccc1	inactive
Cc1ccc(S(=O)(=O)N(C)C[C@@H]2Oc3c(NC(=O)c4nc5ccccc5s4)cccc3C(=O)N([C@H](C)CO)C[C@@H]2C)cc1	active
C[C@@H]1CN([C@H](C)CO)C(=O)c2cccc(NC(=O)c3nc4ccccc4s3)c2O[C@H]1CN(C)S(=O)(=O)c1ccc(Cl)cc1	active
C[C@H]1CN([C@@H](C)CO)C(=O)c2cccc(NC(=O)c3ccc(-c4nccs4)cc3)c2O[C@@H]1CN(C)C(=O)Nc1ccc(C(F)(F)F)cc1	inactive
CC(C)NC(=O)N(C)C[C@@H]1Oc2c(NC(=O)c3nc4ccccc4s3)cccc2C(=O)N([C@H](C)CO)C[C@H]1C	inactive
C[C@H]1CN([C@@H](C)CO)C(=O)c2cccc(NC(=O)Nc3ccc(C(F)(F)F)cc3)c2O[C@@H]1CN(C)Cc1ccccc1	inactive
C[C@@H]1CCCCO[C@H](CN(C)C(=O)c2ccccc2)[C@@H](C)CN([C@H](C)CO)C(=O)c2cc(NC(=O)c3ccccc3)ccc2O1	inactive
COc1ccc(S(=O)(=O)N(C)C[C@H]2Oc3ccc(NS(=O)(=O)c4c(C)noc4C)cc3CC(=O)N([C@@H](C)CO)C[C@H]2C)cc1	inactive
C[C@@H]1CN([C@@H](C)CO)C(=O)Cc2cc(NC(=O)Cc3ccccc3)ccc2O[C@@H]1CN(C)Cc1ccc(Oc2ccccc2)cc1	active
C[C@@H]1CN([C@@H](C)CO)C(=O)Cc2cc(NC(=O)Cc3ccccc3)ccc2O[C@@H]1CN(C)Cc1ccc2c(c1)OCO2	inactive
C[C@@H]1CN([C@H](C)CO)C(=O)c2cccc(NC(=O)Nc3ccc(F)cc3)c2O[C@@H]1CN(C)Cc1ccc(C(F)(F)F)cc1	inactive
COc1ccc(S(=O)(=O)N(C)C[C@H]2Oc3ccc(NS(=O)(=O)c4ccc(F)cc4)cc3C(=O)N([C@H](C)CO)C[C@H]2C)cc1	inactive
C[C@H](CO)N1C[C@H](C)[C@H](CN(C)C(=O)Nc2ccc(C(F)(F)F)cc2)Oc2c(NC(=O)c3ccncc3)cccc2C1=O	active
